Target: T1, CD27 expressed on the cell surface (HT1080_CD27 cells) (human, UniProt P26842 20-260)
T1 construct: whole, on cells; also called K562_CD27
T1 sequence (looked up): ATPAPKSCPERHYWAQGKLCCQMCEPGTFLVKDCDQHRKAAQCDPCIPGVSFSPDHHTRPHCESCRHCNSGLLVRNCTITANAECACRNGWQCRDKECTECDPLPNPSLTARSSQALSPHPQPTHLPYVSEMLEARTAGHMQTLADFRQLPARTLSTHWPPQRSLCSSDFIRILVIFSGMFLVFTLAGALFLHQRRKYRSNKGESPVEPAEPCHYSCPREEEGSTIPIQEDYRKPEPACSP
Test: cellular binding assay, HT1080_CD27 cells; note: test concentration or dose not given here
Parameter: Cellular binding assay [RFU]. Scope: all listed entries.
measurement-label: Cellular binding assay [RFU] (RFU)

P018.S.04.A.A05 (antibody, V domains shown, V regions on human Ig constant parts; also called AB27_65) VH: QSLEESGGRLVTPGTPLTLTCTASGFTISSYEMGWVRQAPGEGLEYIGWIASGGSTFYASWAKGRFTISRTSTTVDLTITDLRPSDTGTYFCARGYVEFKLWGPGTLVTVSS VL: DIVMTQTPASVSESVGGTVTIKCQASQSIGSYLSWYQQKPGQPPKVLIYRASTLESGVPSRFEGSGSGTQFTLTISDLESADAATYYCQGYHSTSGYVAFGGGTELVVK ... 206
P018.S.04.A.A01 (antibody, V domains shown, V regions on human Ig constant parts; also called AB27_64) VH: QEQLVESGGGLVQPEGSLTLTCTESGFSFSSNAVCWVRQAPGKGLEWIACIYVDSIGSTWYASWAKGRFTISKTSSTTVTLQMTSLTAADTATYFCARGDNIAYFMLWGPGTLVTVSS VL: DIVMTQTPASVEAAVGGTVTIRCQASESITSFLSWYQQKPGQPPKLLIYKISTLASGVPSRFKASGSGTEFTLTISDLESADAAAYYCQGYYYYSNVVYASNGFGGGTEVVVK ... 297
P018.S.07.A.E03 (antibody, V domains shown, V regions on human Ig constant parts; also called AB27_125) VH: QSLEESGGRLVTPGTPLTLTCTVSGIDLSSYAMGWVRQAPGKGLELIGLIYASDRTHYATWAKGRFTISKSSTTVDLKATSLTTEDTATYFCGRYGRGSGGYYYGMDLWGPGTLVTVSS VL: DVVMTQTPASVEAAVGGTVTIKCQASQSGDNYLSWYQQKSGQPPKLLIYLASTLASGVPSRFRGSRSGTEYTLTISDLESADAATYYCQNYCAGSGVCVGVAFGGGTEVVVK ... 227
P018.S.03.A.D02 (antibody, V domains shown, V regions on human Ig constant parts; also called AB27_47) VH: QSVEESGGRLVTPGTPLTLTCTVSGLSLSSYDMSWVRQAPGKGLEWIGYIWSGGTTDYASWAKGRFTISKTSTTVDLKIISPTTEDTATYFCARGYVEFDLWGPGTLVTVSS VL: DPVLTQTPPSVSAAVGGTVTINCQSSQSLYSNNYLSWYQQKPGQPPKVLIWPASSLASGVPSRFKGSGSGTQFTLTISELQSDDAATYYCQGTFYDSGWLSTFGGGTEVVVK ... 397
P018.S.01.A.B04 (antibody, V domains shown, V regions on human Ig constant parts; also called AB27_5) VH: QEQLEESGGRLVTPGGTLTLTCTASGFSLSSYDMSWVRQAPGKGLEWIGYIWSDGNTDYASWAAGRFTASRASTTVDLKMTSLTTEDTATYFCARGYTGFFLWGPGTLVTVSS VL: DVVMTQTPSSVSAAVGGTVTIKCQASQSIGSSYLSWYQQKPGQPPKLLIYKTSTLASGVPSRFKGSGSGTEFTLTISDLESDDAATYYCQCTYYGGSWRVAFGGGTEVVVK ... 382
